# Target system: T1, MICA004-ECD-HISAvi (human)
# T1 construct: also called MICA004 polypeptide
# T1 chain: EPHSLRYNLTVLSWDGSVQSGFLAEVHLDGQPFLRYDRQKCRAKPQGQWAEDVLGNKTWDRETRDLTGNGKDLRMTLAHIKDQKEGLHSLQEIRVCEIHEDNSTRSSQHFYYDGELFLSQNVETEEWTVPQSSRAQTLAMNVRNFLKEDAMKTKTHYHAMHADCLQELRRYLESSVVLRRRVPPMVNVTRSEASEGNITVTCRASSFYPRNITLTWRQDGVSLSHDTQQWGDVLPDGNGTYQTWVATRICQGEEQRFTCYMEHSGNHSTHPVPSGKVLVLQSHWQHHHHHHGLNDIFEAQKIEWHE
# Protocol description: SPR (Carterra); antibody captured by anti-human Fc, monomeric ECD antigen injected;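 also: dissociation phase followed for about 10 min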
Define the label as 1.0 when Kd is strictly less than 30 nM and as 0.0 in all remaining cases.

| Binder | Category |
| --- | --- |
| #38 (antibody, human IgG1, V domains shown, also called PL114H02; Hit ID 38) VH: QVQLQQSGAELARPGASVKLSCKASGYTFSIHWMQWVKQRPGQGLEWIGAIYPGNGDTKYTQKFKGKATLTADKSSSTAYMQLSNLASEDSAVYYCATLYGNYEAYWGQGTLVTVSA VL: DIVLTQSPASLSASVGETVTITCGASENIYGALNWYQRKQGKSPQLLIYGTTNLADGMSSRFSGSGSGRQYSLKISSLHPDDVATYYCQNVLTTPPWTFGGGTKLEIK | 1.0 |
| B10G5 (antibody, human IgG1, kappa, V domains shown, also called B10G5-2; P2B10G5) VH: EVQLEESGPGLVKPSQSLSLTCTVTGYSITSDYAWNWIRQFPGNKLEWMGYISYSGSTNYNPSLKSRISITRDTSKNQFFLQLNSVITEDTATYYCARGGTYFDYWGQGTTLTVSS VL: DIVLTQTTSYLSVSLGGRVTIACKASAHINNWLAWYQQKPGNAPRLLISDATSLETGVPSRFSGSGSGKDYTLSITSLQTEDVATYYCQHYWSTPWTFGGGTKLEIKR | 1.0 |
| 13A9 (antibody, human IgG1, kappa, V domains shown) VH: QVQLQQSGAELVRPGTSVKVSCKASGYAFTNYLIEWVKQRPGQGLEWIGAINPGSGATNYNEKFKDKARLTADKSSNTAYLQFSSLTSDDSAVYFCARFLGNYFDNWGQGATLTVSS VL: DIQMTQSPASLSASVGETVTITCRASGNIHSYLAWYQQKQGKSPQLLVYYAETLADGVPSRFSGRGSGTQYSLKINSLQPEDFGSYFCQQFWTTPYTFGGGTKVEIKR | 1.0 |
| #36 (antibody, human IgG1, V domains shown, also called PL116H11; Hit ID 36) VH: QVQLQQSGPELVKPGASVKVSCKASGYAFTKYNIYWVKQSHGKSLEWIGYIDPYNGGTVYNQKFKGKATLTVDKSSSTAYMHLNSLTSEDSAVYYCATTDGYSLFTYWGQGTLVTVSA VL: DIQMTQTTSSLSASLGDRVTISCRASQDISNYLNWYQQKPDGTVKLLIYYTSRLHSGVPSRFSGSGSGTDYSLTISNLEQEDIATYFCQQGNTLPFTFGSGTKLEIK | 0.0 |
| 3F9 (antibody, human IgG1, kappa, V domains shown, also called benchmark 3F9) VH: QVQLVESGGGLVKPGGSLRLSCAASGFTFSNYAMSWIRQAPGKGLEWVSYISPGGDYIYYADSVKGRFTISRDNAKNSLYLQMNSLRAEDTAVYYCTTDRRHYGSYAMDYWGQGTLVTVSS VL: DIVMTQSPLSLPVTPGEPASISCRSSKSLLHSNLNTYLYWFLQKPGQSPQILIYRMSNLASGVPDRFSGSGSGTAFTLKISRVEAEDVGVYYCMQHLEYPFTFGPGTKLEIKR | 1.0 |

Decide: Kd of #39 (antibody, human IgG1, V domains shown, also called PL114G03; Hit ID 39) VH: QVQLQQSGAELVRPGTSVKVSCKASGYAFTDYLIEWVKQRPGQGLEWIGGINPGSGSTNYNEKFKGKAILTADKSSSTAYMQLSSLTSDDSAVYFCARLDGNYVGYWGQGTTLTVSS VL: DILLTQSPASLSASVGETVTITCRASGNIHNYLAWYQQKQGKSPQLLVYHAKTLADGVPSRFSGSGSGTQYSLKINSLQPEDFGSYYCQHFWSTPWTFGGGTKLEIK strictly below 30 nM?
0.0
